Just for reference, patent US11319324B2 is where these values come from.

Kindly state IC50 for each of the entries shown.
Target: human P2X2/3 receptors (Homo sapiens, UniProt P56373+Q9UBL9)
Construct: expressed in transfected cells; host or cells: human astrocytoma 1321N1 (1312N1 [sic])
Assay: Intracellular calcium measurement, antagonist activity at human P2X2/3 receptors (hP2X23 1321N1), Fluo8
Type: cell-based
Conditions: column 4); 1321N1 cells, human P2X2/3, Fluo8, agonist ATP at EC50; read-out: 4) hP2X2/3 IC50 [nM] (1321N1)

# IC50 (compound: CC(C)N1Cc2c(n(CC(=O)Nc3ccc(F)cn3)c3cc(C(=O)N4CCOCC4)nn3c2=O)C1=O [Example 225] ) is > 32000 nM

For CC[C@H](C)N1Cc2c(n(CC(=O)Nc3ccc(F)cn3)c3cc(C(F)(F)F)nn3c2=O)C1=O [Example 20] the compound record lists IC50 as > 22000 nM

Please fill in: IC50 reported for CC(C)N1Cc2c(n(CC(=O)Nc3ccc(F)cn3)c3cc(NCC(F)F)nn3c2=O)C1=O [Example 170] = > 20400 nM

Short answer for CCc1cc2n(CC(=O)Nc3ccc(F)cn3)c3c(c(=O)n2n1)CN(CCN1CCOCC1)C3=O [Example 95] : IC50 was > 22500 nM

----------
For each of the compounds below, state its hP2X23/hP2X3* Selectivity (1321N1).
Target: human P2X2/3 receptors (Homo sapiens, UniProt P56373+Q9UBL9)
Construct: expressed in transfected cells; host or cells: human astrocytoma 1321N1 (1312N1 [sic])
Assay: Intracellular calcium measurement, antagonist activity at human P2X2/3 receptors (hP2X23 1321N1), Fluo8
Assay type: cell-based
Conditions: ratio of column 4) hP2X2/3 to column 3) hP2X3, 1321N1

Per the record, COC[C@H](C)N1Cc2c(n(CC(=O)Nc3ccc(F)cn3)c3cc(C)nn3c2=O)C1=O has hP2X23/hP2X3* Selectivity (1321N1) of >393

// hP2X23/hP2X3* Selectivity (1321N1) value for CN(C)CCN1Cc2c(n(CC(=O)Nc3ccc(F)cn3)c3cc(C(C)(C)C)nn3c2=O)C1=O : >80

Memo: CCc1cc2n(CC(=O)Nc3ccc(F)cn3)c3c(c(=O)n2n1)CN(CC1CCOC1)C3=O (stereo not shown) , reported hP2X23/hP2X3* Selectivity (1321N1): >73

// hP2X23/hP2X3* Selectivity (1321N1) value for CCc1cc2n(CC(=O)Nc3ccc(F)cn3)c3c(c(=O)n2n1)CN(C[C@@H]1COCCN1C(C)C)C3=O : >146

----------
Target: human P2X2/3 receptors (Homo sapiens, UniProt P56373+Q9UBL9)
Construct: expressed in transfected cells; host or cells: human astrocytoma 1321N1 (1312N1 [sic])
Sequence (P56373 1-397): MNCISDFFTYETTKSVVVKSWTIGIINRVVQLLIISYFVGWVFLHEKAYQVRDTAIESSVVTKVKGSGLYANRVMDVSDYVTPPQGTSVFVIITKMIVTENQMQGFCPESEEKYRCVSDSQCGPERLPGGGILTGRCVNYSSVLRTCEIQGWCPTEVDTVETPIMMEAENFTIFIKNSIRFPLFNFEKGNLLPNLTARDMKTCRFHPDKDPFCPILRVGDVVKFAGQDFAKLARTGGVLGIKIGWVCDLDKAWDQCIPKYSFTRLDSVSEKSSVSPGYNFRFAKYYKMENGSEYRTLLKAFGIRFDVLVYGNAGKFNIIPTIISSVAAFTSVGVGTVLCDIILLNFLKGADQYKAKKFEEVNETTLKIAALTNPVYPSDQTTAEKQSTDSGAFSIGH
Sequence (Q9UBL9 1-471): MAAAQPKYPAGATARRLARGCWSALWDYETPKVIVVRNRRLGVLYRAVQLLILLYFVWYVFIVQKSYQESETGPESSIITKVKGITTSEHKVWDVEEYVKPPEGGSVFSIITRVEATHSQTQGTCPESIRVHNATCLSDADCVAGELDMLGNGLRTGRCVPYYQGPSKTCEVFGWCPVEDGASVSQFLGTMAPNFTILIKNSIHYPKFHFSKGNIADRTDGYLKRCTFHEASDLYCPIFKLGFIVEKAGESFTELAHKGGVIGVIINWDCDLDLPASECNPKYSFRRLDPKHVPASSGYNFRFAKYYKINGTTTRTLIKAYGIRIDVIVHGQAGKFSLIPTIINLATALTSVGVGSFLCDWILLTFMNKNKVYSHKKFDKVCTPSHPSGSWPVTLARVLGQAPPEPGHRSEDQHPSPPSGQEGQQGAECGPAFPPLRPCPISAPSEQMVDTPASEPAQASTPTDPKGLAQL
Assay: Intracellular calcium measurement, antagonist activity at human P2X2/3 receptors (hP2X23 1321N1), Fluo8
Assay type: cell-based
Conditions: ratio of column 4) hP2X2/3 to column 3) hP2X3, 1321N1
readout.type: hP2X23/hP2X3* Selectivity (1321N1)

For reference, reported hP2X23/hP2X3* Selectivity (1321N1) for CC(C)N1Cc2c(n(CC(=O)Nc3ccc(F)cn3)c3cc(C4CCS(=O)(=O)CC4)nn3c2=O)C1=O stands at >1185

The reported hP2X23/hP2X3* Selectivity (1321N1) of the molecule C[C@H](O)CN1Cc2c(n(CC(=O)Nc3ccc(F)cn3)c3cc(C(C)(C)C)nn3c2=O)C1=O was >122

Query CCc1cc2n(CC(=O)Nc3ccc(F)cn3)c3c(c(=O)n2n1)CN(CC1CCOCC1)C3=O yields hP2X23/hP2X3* Selectivity (1321N1) of >48
